Assay: ACEA_AR_antagonist_AUC_viability: ACEA Biosciences xCELLigence Real-Time Cell Analysis on Androgen Receptor Antagonism for Viability (AID 2283776);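 also: 22Rv1 human prostate cancer cells growing on impedance electrode plates; area under impedance growth curve at 80 h after dosing as viability; hits lower the growth signal relative to DMSO meaning cytotoxicity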
Results filed as inconclusive are left out. The source made the active and inactive calls. The calls were made as follows: active = hit-call score of the fitted dose curve at least 0.9, where 1 is the maximum; inconclusive = response in the unintended direction; inactive = score below 0.9.

| compound | AC50 |
| --- | --- |
| CC(C)c1cccc(C(C)C)c1N1C(=O)c2ccc(O)cc2C1=O | 17.6 µM (active) |
| CCCCCCc1ccc(O)cc1O | 13.7 µM (active) |
| Cc1ccc(O)cc1 | inactive |
| CC1=CC(=O)CC(C)(C)C1 | inactive |
| Nc1ccc(Nc2ccccc2)cc1 | 87.5 µM (active) |
| CC(O)CN(CCN(CC(C)O)CC(C)O)CC(C)O (centres undefined) | inactive |
| CC(C)=CCCC(C)=CC=O | inactive |
| CC(=O)OCCC(C)C | inactive |
| C=CC(=C)CCC=C(C)C | inactive |
| O=C1CCCCCN1 | inactive |
| O=C(NS(=O)(=O)/C=C/c1ccccc1)c1ccc(F)cc1Cl | 13.1 µM (active) |
| CC(C)=CCC/C(C)=C\CO | inactive |
| O=C1CCC(N2C(=O)c3ccccc3C2=O)C(=O)N1 (centres undefined) | inactive |
| CCCN(C1CCN(C(=O)C2CCNCC2)CC1)[C@@H]1CCc2ccc(OC)cc2C1 | 50 µM (active) |

###

Test: BSK_3C_Proliferation: Cell Proliferation Assessment in the BioMAP Diversity Plus: 3C Assay (AID 2283006)
Settings: primary human endothelial cells (HUVEC)
The source made the active and inactive calls. How the source made its calls: active means hit-call score of the fitted dose curve at least 0.9, where 1 is the maximum; inactive means score below 0.9.
Outcome codes: active, inactive

| molecule | qualitative_label |
| --- | --- |
| COc1ccc(-n2nc(C(F)F)cc2-c2ccc(S(C)=O)cc2)cc1 (centres undefined) | inactive |
| COC(=O)c1c(Cl)c(Cl)c(C(=O)OC)c(Cl)c1Cl | active |
| Oc1ccc2c(c1)-c1ccccc1C2 | active |
| CC(=O)OCCC(C)C | inactive |
| CC(C)=CCCC(C)CCO (centres undefined) | inactive |
| C1N2CN3CN1CN(C2)C3 | inactive |
| COc1ccc(/C=C/S(=O)(=O)NC(=O)c2ccc(C)cc2Cl)cc1 | active |
| CN(C)c1ccc(N=NS(=O)(=O)O)cc1 | inactive |
| CC(C)CCO | inactive |
| CCCCCCCCCCCCCCCO | active |
| O=C1CCCCCN1 | inactive |
| CCN(C(=O)c1cc(C)cc(OC[C@H](C)Nc2ccncc2)c1)C(C)C | inactive |
| CNS(=O)(=O)c1cc(C(=O)N2CCC(CCN3C4CCC3CC(n3c(C)nc5ccccc53)C4)(c3cccc(F)c3)CC2)c(Cl)cc1F (centres undefined) | active |
| CC(C)=CCC/C(C)=C/CO | inactive |

###

Assay: APR_HepG2_P-H2AX_72hr: Apredica 72-hour HepG2 Assay for H2AX Phosphorylation (AID 2282916);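 also: phospho-histone H2A.x immunostain intensity per cell marking DNA damage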
Settings: imaging, actives raise or lower the signal
Activity calls are given as the source filed them. Rule for the calls: active = hit-call score of the fitted dose curve at least 0.9, where 1 is the maximum; inactive = score below 0.9.
Classes used: active, inactive

| molecule | qualitative_label |
| --- | --- |
| COC(=O)CC(=O)OC | inactive |
| CC(O)CN(CCN(CC(C)O)CC(C)O)CC(C)O (stereo unspecified) | inactive |
| COc1ccc(-n2nc(C(F)F)cc2-c2ccc(S(C)=O)cc2)cc1 (stereo unspecified) | inactive |
| Cc1ccc(O)cc1 | inactive |
| Nc1cccc(N)c1 | inactive |
| Cc1ccc(S(=O)(=O)O)cc1C | inactive |
| Nc1ccc(Nc2ccccc2)cc1 | active |
| CC[C@H]1OC(=O)[C@H](C)[C@@H](O[C@H]2C[C@@](C)(OC)[C@@H](O)[C@H](C)O2)[C@H](C)[C@@H](O[C@@H]2O[C@H](C)C[C@H](N(C)C)[C@H]2O)[C@](C)(O)C[C@@H](C)C(=O)[C@H](C)[C@@H](O)[C@]1(C)O | inactive |
| CC(C)=CCC/C(C)=C/CO | inactive |
| CC[C@H](C)C(=O)O[C@H]1C[C@@H](C)C=C2C=C[C@H](C)[C@H](CC[C@@H]3C[C@@H](O)CC(=O)O3)[C@H]21 | active |
| Oc1ccc2c(c1)-c1ccccc1C2 | active |

Numbers sourced from PubChem BioAssay (EPA / NIEHS).
